Where a name gives a salt, the structure may show the parent alone.
quantity.measured: melting point

The reported value for Cn1nc(-c2cc(Cl)cc(Cl)c2)c(N)nc1=N (as salt: methanesulfonate) in terms of melting point is 234 to 236 °C

In plain terms, Cn1nc(-c2ccc(Cl)cc2Cl)c(N)nc1=N (as salt: methanesulfonate) has a documented melting point of 283 to 285 °C

The recorded melting point for entry Nc1nnc(-c2cccc(F)c2Cl)c(N)n1 equals 244 to 246 °C

====

measured.target: hERG potassium channel (Homo sapiens)
Sequence (Q12809 whole entry): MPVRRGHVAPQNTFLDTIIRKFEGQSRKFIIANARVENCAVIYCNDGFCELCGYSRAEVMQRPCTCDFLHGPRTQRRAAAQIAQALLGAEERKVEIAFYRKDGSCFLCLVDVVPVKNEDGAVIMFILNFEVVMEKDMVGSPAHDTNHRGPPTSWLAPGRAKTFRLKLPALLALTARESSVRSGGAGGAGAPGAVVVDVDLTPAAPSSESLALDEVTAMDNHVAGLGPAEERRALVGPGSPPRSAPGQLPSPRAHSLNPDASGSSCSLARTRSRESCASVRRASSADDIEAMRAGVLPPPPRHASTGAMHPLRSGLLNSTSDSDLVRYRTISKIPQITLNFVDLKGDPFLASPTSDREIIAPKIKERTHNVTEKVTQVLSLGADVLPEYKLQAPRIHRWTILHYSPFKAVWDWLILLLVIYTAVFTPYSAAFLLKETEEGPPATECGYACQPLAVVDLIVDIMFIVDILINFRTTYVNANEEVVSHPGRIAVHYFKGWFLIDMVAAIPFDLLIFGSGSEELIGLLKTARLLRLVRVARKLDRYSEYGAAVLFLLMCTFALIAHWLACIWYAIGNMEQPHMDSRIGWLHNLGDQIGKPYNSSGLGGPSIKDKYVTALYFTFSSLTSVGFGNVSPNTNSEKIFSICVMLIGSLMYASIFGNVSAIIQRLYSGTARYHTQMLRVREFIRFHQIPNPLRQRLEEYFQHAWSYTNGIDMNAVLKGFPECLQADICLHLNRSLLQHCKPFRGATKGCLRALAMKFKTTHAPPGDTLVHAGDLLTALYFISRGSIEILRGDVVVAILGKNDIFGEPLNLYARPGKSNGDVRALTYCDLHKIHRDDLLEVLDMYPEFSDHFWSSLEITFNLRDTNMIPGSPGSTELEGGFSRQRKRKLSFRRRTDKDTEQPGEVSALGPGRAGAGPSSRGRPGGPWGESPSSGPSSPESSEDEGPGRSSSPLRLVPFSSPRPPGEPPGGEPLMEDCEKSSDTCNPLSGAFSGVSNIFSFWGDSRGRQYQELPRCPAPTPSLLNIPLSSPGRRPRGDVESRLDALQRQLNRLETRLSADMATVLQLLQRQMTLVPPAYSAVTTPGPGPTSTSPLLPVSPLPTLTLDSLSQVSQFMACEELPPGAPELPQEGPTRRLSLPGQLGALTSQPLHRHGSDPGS
measurement.notes: inhibition of binding of [3H]astemizole to cell membranes expressing hERG
Task for the reader: assign each of the following compounds its reported IC50.
Give your result in nM as a bare value.

Recorded result, COc1ccccc1Cn1nc(-c2cccc(Cl)c2Cl)c(N)nc1=N , IC50: 1900

Lab note: Cn1nc(-c2cccc(Cl)c2F)c(N)nc1=N gave IC50 of 20300

// field: IC50; key: C=CCn1nc(-c2cccc(Cl)c2Cl)c(N)nc1=N ; value = 10000

Entry N=c1nc(N)c(-c2cccc(Cl)c2Cl)nn1Cc1ccccc1C(F)(F)F , IC50 reported as 1100

Value of IC50 reported for the compound N=c1nc(N)c(-c2cccc(Cl)c2Cl)nn1CCC(F)(F)F is 15000

Noted for CCCn1nc(-c2cccc(Cl)c2Cl)c(N)nc1=N : its IC50 reads 2800

Note to self: IC50 recorded for N=c1nc(N)c(-c2cccc(Cl)c2Cl)nn1Cc1cccc(F)c1F was 1900

Briefly, IC50 measured for N=c1nc(N)c(-c2cccc(Cl)c2Cl)nn1Cc1ccsc1 : 2000

Looking up N=c1nc(N)c(-c2cccc(Cl)c2Cl)nn1CC1CCNCC1 , I found its IC50 recorded as 2500

Measured IC50, COc1cccc(Cn2nc(-c3cccc(Cl)c3Cl)c(N)nc2=N)c1 : 1500

# IC50 (compound: Nc1nnc(-c2cc(Cl)cc(Cl)c2Cl)c(N)n1 ) is 66900

Given item Cn1nc(-c2cccc(Cl)c2Cl)c(N)nc1=N , the value recorded as its IC50 is 73300

Notebook: N=c1nc(N)c(-c2cccc(Cl)c2Cl)nn1Cc1cccc(C(F)(F)F)c1 , IC50 read as 600

IC50 in this record for N=c1nc(N)c(-c2cccc(Cl)c2Cl)nn1Cc1ccccc1F : 2500
